- test name: in vivo
- condition info: BALB/c nude, mouse, in vivo, iv, total radioactivity, % ID/g Intestine
Reported tissue uptake at 24 h is given for each of the following molecules.
Return type: number; implicit unit %ID/g.

Example entries and their recorded answers appear below.
>>> endpoint_result("C[C@@H](O)[C@H](NC(=O)[C@@H]1CSSC[C@H](NC(=O)[C@@H](Cc2ccccc2)NC(=O)CN2CCN(CC(=O)O)CCN(CC(=O)O)CCN(CC(=O)O)CC2)C(=O)N[C@@H](Cc2ccc(O)cc2)C(=O)N[C@H](Cc2c[nH]c3ccccc23)C(=O)N[C@@H](CCCCN)C(=O)N[C@@H]([C@@H](C)O)C(=O)N1)C(=O)O [^177Lu-C-1, metal not drawn, reference compound]")
0.46
>>> endpoint_result("C[C@@H](O)[C@H](NC(=O)[C@@H]1CSSC[C@H](NC(=O)[C@@H](Cc2ccccc2)NC(=O)[C@H](CCCCNC(=O)COCCOCCNC(=O)c2cccc(NC(=O)N[C@@H]3CN(C4CCCCC4)c4ccccc4N(CC(=O)C(C)(C)C)C3=O)c2)NC(=O)CN2CCN(CC(=O)O)CCN(CC(=O)O)CCN(CC(=O)O)CC2)C(=O)N[C@@H](Cc2ccc(O)cc2)C(=O)N[C@H](Cc2c[nH]c3ccccc23)C(=O)N[C@@H](CCCCN)C(=O)N[C@@H]([C@@H](C)O)C(=O)N1)C(=O)O [^177Lu-I-36, metal not drawn]")
1.29

Would you kindly look at the next entry?
In: Item under review: CC(C)(C)C(=O)CN1C(=O)[C@H](NC(=O)Nc2cccc(C(=O)N[C@@H](CCC(=O)N[C@@H](CCC(=O)N[C@@H](CCC(=O)N[C@@H](CCCCNC(=O)COCCOCCNC(=O)COCCOCCNC(=O)CCC(C(=O)O)N3CCN(CC(=O)O)CCN(CC(=O)O)CCN(CC(=O)O)CC3)C(N)=O)C(=O)O)C(=O)O)C(=O)O)c2)CN(C2CCCCC2)c2ccccc21 (stereo partly drawn) [^177Lu-C-4, metal not drawn, reference compound] . Reported tissue uptake at 24 h?
Out: 0.04

----------
Reported tissue to tissue ratio at 24 h is given for each of the following molecules.
- test name: in vivo
- condition info: BALB/c nude, mouse, in vivo, iv, total radioactivity, T/St Tumor/Stomach ratio
Number only, please.

>>> endpoint_result("C[C@@H](O)[C@H](NC(=O)[C@@H]1CSSC[C@H](NC(=O)[C@@H](Cc2ccccc2)NC(=O)[C@H](CCCCNC(=O)c2cccc(NC(=O)N[C@@H]3CN(C4CCCCC4)c4ccccc4N(CC(=O)C(C)(C)C)C3=O)c2)NC(=O)COCCOCCNC(=O)COCCOCCNC(=O)CN2CCN(CC(=O)O)CCN(CC(=O)O)CCN(CC(=O)O)CC2)C(=O)N[C@@H](Cc2ccc(O)cc2)C(=O)N[C@H](Cc2c[nH]c3ccccc23)C(=O)N[C@@H](CCCCN)C(=O)N[C@@H]([C@@H](C)O)C(=O)N1)C(=O)O [Compound I-41, DOTA-OEG-OEG-K(Z360)-f[CYwKTC]T-OH]")
4

In: Item under review: C[C@@H](O)[C@H](NC(=O)[C@@H]1CSSC[C@H](NC(=O)[C@@H](Cc2ccccc2)NC(=O)[C@H](CCCCNC(=O)COCCOCCNC(=O)COCCOCCNC(=O)c2cccc(NC(=O)N[C@@H]3CN(C4CCCCC4)c4ccccc4N(CC(=O)C(C)(C)C)C3=O)c2)NC(=O)CN2CCN(CC(=O)O)CCN(CC(=O)O)CCN(CC(=O)O)CC2)C(=O)N[C@@H](Cc2ccc(O)cc2)C(=O)N[C@H](Cc2c[nH]c3ccccc23)C(=O)N[C@@H](CCCCN)C(=O)N[C@@H]([C@@H](C)O)C(=O)N1)C(=O)O [Compound I-42, DOTA-K(-OEG-OEG-Z360)-f]CYwKTC]T-OH] . Reported tissue to tissue ratio at 24 h?
Out: 8.8
